- EXPERIMENTAL PROTOCOL: non-covalent RecA intein splicing inhibitors, dose response, biochemical, cell-free, fluorescence, secondary screen (AID 449750)
The source made the active and inactive calls. How the calls were made is not given here.
The reply should be one of these categories: active, inactive

These solved cases illustrate the format of a correct answer.
MOLECULE | CLASS
CC(=O)NC1C(=O)N(CCN2CCOCC2)c2ccc(Cl)cc21 (stereo not drawn) | active
CCOC(=O)c1c(NC(=O)CCl)sc(CN(C)C)c1-c1ccccc1 | active
COc1cc(-n2nc(C)c3c2OC(N)=C(C#N)C3c2ccccc2)c(Cl)c(Br)c1O (stereo not drawn) | active
CC1=NNC(=O)C1C(c1ccc(F)cc1)C(C#N)C#N (stereo not drawn) | inactive
CC1=C(CC(=O)c2ccccc2)C(=O)c2ccccc2C1=O | active
Cn1c(-c2ccccc2)c(C(=O)CCl)c2ccccc21 | active
CCCCNC1C(CC)C(CCC)C(C#N)(C#N)C1(C#N)C#N (stereo not drawn) | inactive
COc1cccc(NC(=O)CSc2c3c(nc4ccccc24)CCCC3)c1 | active
COc1ccc(N2C(=O)C(Cl)=C(N3CCOCC3)C2=O)cc1 | inactive
COc1cccc(-n2nnnc2S(C)(=O)=O)c1 | inactive

INPUT: Could you check what this test reported for "COc1ccc(/C(=N/OC(C)=O)c2nccc3cc(OC)c(OC)cc23)cc1OC" ?
OUTPUT: inactive

* * *

- EXPERIMENTAL PROTOCOL: non-covalent RecA intein splicing inhibitors, dose response, biochemical, cell-free, fluorescence, secondary screen (AID 449750)
The source made the active and inactive calls. The rule behind the calls is not given here.
The reply should be one of these categories: true (1) for active, false (0) for inactive

These solved cases illustrate the format of a correct answer.
MOL SMILES | CLASS
COc1ccc2ccc3c(c2c1)N=C[C@]1(O3)N(C)c2ccccc2C1(C)C | false (0)
CCOc1cc(C(c2c(C)[nH][nH]c2=O)c2c(C)[nH][nH]c2=O)cc(Br)c1OC | true (1)
CC(C)Cn1c(C(C)C)nc([N+](=O)[O-])c1S(=O)(=O)c1ccc(F)cc1 | false (0)
COC(=O)c1sc(-c2ccc(C(C)(C)C)cc2)cc1NC(=O)/C=C/C(=O)O | true (1)
CCOC(=O)c1c(NC(=O)/C=C/C(=O)O)sc(C)c1-c1ccc(F)cc1 | true (1)
O=C(O)c1ccc(NC2=C(n3nnc4ccccc43)C(=O)c3ccccc3C2=O)cc1 | true (1)

Let us examine a further case.
INPUT: Could you check what this test reported for "O=c1[nH]c(Nc2ccccn2)cc2ccccc12" ?
OUTPUT: false (0)

* * *

- EXPERIMENTAL PROTOCOL: non-covalent RecA intein splicing inhibitors, dose response, biochemical, cell-free, fluorescence, secondary screen (AID 449750)
Calls of active or inactive are those of the source. How the calls were made is not given here.
The reply should be one of these categories: active, inactive

These solved cases illustrate the format of a correct answer.
COMPOUND | CLASS
CCOC(=O)c1c(CSC(=N)N)n(-c2ccccc2)c2cc(Br)c(OC(C)=O)cc12 | active
O=C(Oc1ccc(Br)cc1C(=S)N1CCCCC1)c1cc([N+](=O)[O-])cc([N+](=O)[O-])c1 | inactive
COc1ccc2[nH]c3c(Cl)ncnc3c2c1 | inactive
O=C1C(=O)c2ccccc2C([O-])=C1[n+]1ccccc1 | active
O=C(O)/C=C\C(=O)Nc1ccc(Oc2ccc(Br)cc2)cc1 | active

Let us examine a further case.
INPUT: Could you check what this test reported for COc1ccc(C(O)c2nccc3cc(OC)c(OC)cc23)cc1OC (configuration not stated) ?
OUTPUT: inactive
